target or system: human GLP-1 receptor (human, UniProt P43220 24-463)
method description: cell-based or functional assay
*1 amine or outer side, *2 acyl side, *3 side chain or, on linkers, in order; H or OH if unused. Where no end group is shown, it is not given here. Side-chain parts run from the residue outwards. [ ]: non-standard residue; d: D form. The star is where a group is joined. Decanoyl(10-(4-HOOC-PhO)) = O=C(O)c1ccc(OCCCCCCCCCC(=O)*)cc1; αMePhe(2-F) = C[C@](N)(Cc1ccccc1F)C(=O)O; γGlu = O=C(O)[C@H](CCC(=O)[*:2])N[*:1]; αMeY = C[C@](N)(Cc1ccc(O)cc1)C(=O)O; αMeL = CC(C)C[C@](C)(N)C(=O)O; Orn = NCCC[C@H](N)C(=O)O; AEEA = NCCOCCOCC(=O)O; Aib = CC(C)(N)C(=O)O
attribute measured: cAMP EC50 (1.0% HSA) (nM)
Numbers only, in nM.

Guide cases for cAMP EC50 (1.0% HSA), answers given:
YXEGTXTSDXXIXLDXIAQXKFIXXLIEGGPSSGAPPPSK (Y-Aib-EGT-αMeF(2F)-TSD-4Pal-Aib-I-αMeL-LD-Orn-IAQ-Aib-K(2-[2-(2-Amino-ethoxy)-ethoxy]-acetyl)2-(γ-Glu)-(11-(4-carboxyphenoxy)undecanoyl)FI-(D-Glu)-αMeY-LIEGGPSSGAPPPSK((2-[2-(2-Amino-ethoxy)-ethoxy]-acetyl)2-(γ-Glu)-(11-(4-carboxyphenoxy)undecanoyl)-NH2)) [Example 242]
214
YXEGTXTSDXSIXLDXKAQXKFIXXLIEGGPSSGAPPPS (Y-Aib-EGT-αMeF(2F)-TSD-OMeY-SI-αMeL-LD-Orn-K((2-[2-(2-Amino-ethoxy)-ethoxy]-acetyl)2-(γ-Glu)-(10-(4-carboxyphenoxy)decanoyl))AQ-Aib-K((2-[2-(2-Amino-ethoxy)-ethoxy]-acetyl)2-(γ-Glu)-(10-(4-carboxyphenoxy)decanoyl))FI-(D-Glu)-αMeY-LIEGGPSSGAPPPS-NH2) [Example 277]
12.2
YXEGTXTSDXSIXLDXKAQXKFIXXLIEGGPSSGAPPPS (Y-Aib-EGT-αMeF(2F)-TSD-hTyr-SI-αMeL-LD-Orn-K((2-[2-(2-Amino-ethoxy)-ethoxy]-acetyl)2-(γ-Glu)-CO-(CH2)10-CH3)AQ-Aib-K((2-[2-(2-Amino-ethoxy)-ethoxy]-acetyl)2-(γ-Glu)-CO-(CH2)10-CH3)FI-(D-Glu)-αMeY-LIEGGPSSGAPPPS-NH2) [Example 323]
9.52
Y[Aib]EGT[αMePhe(2-F)]TSDV[Aib]I[αMeL]LD[Orn]IAQ[Aib]EFIK([AEEA-AEEA-γGlu-Decanoyl(10-(4-HOOC-PhO))])[αMeY]LIK([AEEA-AEEA-γGlu-Decanoyl(10-(4-HOOC-PhO))])GGPSSGAPPPS-NH2 [Example 308]
67.3
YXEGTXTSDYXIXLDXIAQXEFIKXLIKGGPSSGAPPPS (Y-Aib-EGT-αMeF(2F)-TSDY-Aib-I-αMeL-LD-Orn-IAQ-Aib-EFIK((2-[2-(2-Amino-ethoxy)-ethoxy]-acetyl)2-(γ-Glu)-CO-(CH2)12-CO2H)-αMeY-LIK((2-[2-(2-Amino-ethoxy)-ethoxy]-acetyl)2-(γ-Glu)-CO-(CH2)12-CO2H)GGPSSGAPPPS-NH2) [Example 233]
56.7

Value sought for every listed binder: cAMP EC50 (1.0% HSA).
1. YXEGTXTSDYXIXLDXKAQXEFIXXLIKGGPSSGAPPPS (Y-Aib-EGT-αMeF(2F)-TSDY-Aib-I-αMeL-LD-Orn-K((2-[2-(2-Amino-ethoxy)-ethoxy]-acetyl)2-(γ-Glu)-(10-(4-carboxyphenoxy)decanoyl))AQ-Aib-EFI-(D-Glu)-αMeY-LIK((2-[2-(2-Amino-ethoxy)-ethoxy]-acetyl)2-(γ-Glu)-(10-(4-carboxyphenoxy)decanoyl))GGPSSGAPPPS-NH2) [Example 237]
2. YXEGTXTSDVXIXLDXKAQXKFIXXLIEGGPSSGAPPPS (Y-Aib-EGT-αMeF(2F)-TSDV-Aib-I-αMeL-LD-Orn-K((2-[2-(2-Amino-ethoxy)-ethoxy]-acetyl)2-(γ-Glu)-CO-(CH2)12-CO2H)AQ-Aib-K((2-[2-(2-Amino-ethoxy)-ethoxy]-acetyl)2-(γ-Glu)-CO-(CH2)12-CO2H)FI-(D-Glu)-αMeY-LIEGGPSSGAPPPS-NH2) [Example 318]
3. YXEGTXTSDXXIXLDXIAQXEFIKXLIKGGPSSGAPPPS (Y-Aib-EGT-αMeF(2F)-TSD-4Pal-Aib-I-αMeL-LD-Orn-IAQ-Aib-EFIK(2-[2-(2-Amino-ethoxy)-ethoxy]-acetyl)2-(γ-Glu)-(11-(4-carboxyphenoxy)undecanoyl)-αMeY-LIK((2-[2-(2-Amino-ethoxy)-ethoxy]-acetyl)2-(γ-Glu)-(11-(4-carboxyphenoxy)undecanoyl)GGPSSGAPPPS-NH2)) [Example 311]
4. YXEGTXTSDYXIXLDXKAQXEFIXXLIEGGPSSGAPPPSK (Y-Aib-EGT-αMeF(2F)-TSDY-Aib-I-αMeL-LD-Orn-K((2-[2-(2-Amino-ethoxy)-ethoxy]-acetyl)2-(γ-Glu)-CO-(CH2)12-CO2H)AQ-Aib-EFI-(D-Glu)-αMeY-LIEGGPSSGAPPPSK((2-[2-(2-Amino-ethoxy)-ethoxyl-acetyl)2-(γ-Glu)-CO-(CH2)12-CO2H)-NH2) [Example 232]
5. YXEGTXTSDYXIXLDXKAQXXFIXXLIKGGPSSGAPPPS (Y-Aib-EGT-αMeF(2F)-TSDY-Aib-I-αMeL-LD-Orn-K((2-[2-(2-Amino-ethoxy)-ethoxy]-acetyl)2-(γ-Glu)-(10-(4-carboxyphenoxy)decanoyl))AQ-Aib-Om-FI-(D-Glu)-αMeY-LIK((2-[2-(2-Amino-ethoxy)-ethoxy]-acetyl)2-(γ-Glu)-(10-(4-carboxyphenoxy)decanoyl))GGPSSGAPPPS-NH2) [Example 352]

[38.1, 28.7, 33.8, 33.6, 5.46]
